Data origin: PubChem BioAssay (NCI)

Recorded TGI, one value per entry.
System: HOP-18 NSCLC
ASSAY DETAILS: NCI tumour cell line growth inhibition, 48 h

>  <MOLECULE>
COc1ccc2c3c([nH]c2c1CC=C(C)C)C(=O)C=C(C)C3=O

>  <TGI>
> 25 µM

$$$$
>  <MOLECULE>
COc1ccc2c3ccc4c(c3n(C)c2c1)C(=O)C=CC4=O

>  <TGI>
> 100 µM

$$$$
>  <MOLECULE>
CC(NS(=O)(=O)c1ccc(Cl)cc1)C(=O)O (stereo unspecified)

>  <TGI>
> 100 µM

$$$$
>  <MOLECULE>
COc1ccc(OC)c2c(C(=O)O)c(C(C)c3ccccc3)ccc12 (stereo unspecified)

>  <TGI>
> 100 µM

$$$$
>  <MOLECULE>
CCOc1ccc(NC(=O)CC2C(=O)Nc3ccccc3S2=O)cc1 (stereo unspecified)

>  <TGI>
> 100 µM

$$$$
>  <MOLECULE>
COC(=O)CCC(NC(=S)N/N=C(\C)c1ccco1)C(=O)OC (stereo unspecified)

>  <TGI>
> 100 µM

$$$$
>  <MOLECULE>
CCCCc1[nH]ccc2c(C)c3nc4ccccc4c3cc12

>  <TGI>
6.83 µM

$$$$
>  <MOLECULE>
CC1=C(/C=C/C(C)=C/C=C/C(C)=C/C=C/C=C(C)/C=C/C=C(C)/C=C/C=C(C)/C=C/C=C(\C)C(=O)O)C(C)(C)CCC1

>  <TGI>
> 100 µM

$$$$
>  <MOLECULE>
O=C1Cc2ccccc2N1/N=C\c1ccc([N+](=O)[O-])cc1

>  <TGI>
> 100 µM

$$$$
>  <MOLECULE>
CCc1cccc(CC)c1NC(=O)C(=O)Cc1nc2ccccc2o1

>  <TGI>
> 100 µM

$$$$
>  <MOLECULE>
COC(=O)c1cc2cc(OC)c(OC)cc2cc(C(=O)OC)c1=O

>  <TGI>
> 100 µM

$$$$
